assay: Pharmacokinetics in male Sprague Dawley rats; format: in vivo, rat; settings: male, Sprague Dawley, rat, in vivo, po, 1 mg/kg, rats, PO 1 mg/kg, mean (n = 3); read-out: Tmax
Measured metric: Tmax (h)
Unit h implied. Number only.

get_value(item= CC1(C)NC(=O)N(c2ccc(F)c(C(C)(F)F)c2)C1=O , readout=Tmax) returns 6.7

###

test: Mouse exposure / pharmacokinetic studies; type: in vivo, mice; conditions: male, Swiss outbred, mouse, in vivo; mice, oral, mean dose 6.73 mg/kg; read-out: Plasma AUC0-48 h
Measured metric: AUC(0-t) (µg·h/mL)
Unit µg·h/mL implied. Number only.

get_value(item= [2H]C([2H])([2H])C1(C([2H])([2H])[2H])NC(=O)N(c2ccc(F)c(C(C)(F)F)c2)C1=O , readout=AUC(0-t)) returns 145

###

Test: in vivo
Parameters: species or system dog
Details: male, beagle, dog, in vivo, po, 75 mg/kg, male dogs, po 75 mg/kg; read-out: mean t1/2 (converted)
Protocol: The same 2M/2F dogs were used following 2-week washout periods for each dose level in escalation order. This was a survival study and animals were not sacrificed. The following parameters were evaluated: mortality/morbidity, clinical observations, body weights, plasma drug levels, pharmacokinetics and clinical pathology (hematology, coagulation and serum chemistry).
Measured metric: half-life (days)
Unit days implied. Number only.

get_value(item= [2H]C([2H])([2H])C1(C([2H])([2H])[2H])NC(=O)N(c2ccc(F)c(C(C)(F)F)c2)C1=O , readout=half-life) returns 14.2

###

assay: in vivo; set-up: species or system dog; settings: both sexes, beagle, dog, in vivo; dogs, po dose groups 15, 75, 150 mg/kg; read-out: time of peak plasma concentrations (Tmax)
Measured metric: Tmax

get_value(item= [2H]C([2H])([2H])C1(C([2H])([2H])[2H])NC(=O)N(c2ccc(F)c(C(C)(F)F)c2)C1=O , readout=Tmax) returns 0.25 to 24 h

###

biological target: CYP 2C9 (Homo sapiens (Human), UniProt P11712); assay: CYP inhibition in human liver microsomes, 2C9
Sequence (P11712 whole entry): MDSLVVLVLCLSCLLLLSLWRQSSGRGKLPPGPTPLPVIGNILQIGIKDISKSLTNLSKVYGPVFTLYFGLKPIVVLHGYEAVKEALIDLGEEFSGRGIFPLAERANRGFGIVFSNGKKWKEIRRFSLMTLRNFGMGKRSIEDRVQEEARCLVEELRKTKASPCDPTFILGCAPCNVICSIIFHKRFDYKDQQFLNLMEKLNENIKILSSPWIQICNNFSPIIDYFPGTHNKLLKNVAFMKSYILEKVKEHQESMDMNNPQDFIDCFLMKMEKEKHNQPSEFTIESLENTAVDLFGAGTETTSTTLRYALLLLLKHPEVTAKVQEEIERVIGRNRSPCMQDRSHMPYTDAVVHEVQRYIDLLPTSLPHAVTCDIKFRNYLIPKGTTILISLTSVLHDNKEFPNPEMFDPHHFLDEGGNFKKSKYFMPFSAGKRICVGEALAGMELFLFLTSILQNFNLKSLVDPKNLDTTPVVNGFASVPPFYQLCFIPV
pIC50: −log10 of the molar value.
Measured metric: pIC50

CYP 2C9 (Homo sapiens (Human), UniProt P11712) data for CC1(C)NC(=O)N(c2ccc(F)c(C(C)(F)F)c2)C1=O ; its pIC50: < 4.70

###

Experiment: Pharmacokinetics in male Sprague Dawley rats
Type: in vivo, rat
Details: male, Sprague Dawley, rat, in vivo, iv, 1 mg/kg, rats, IV 1 mg/kg, individual rats; read-out: Plasma AUCIV
Experimental: IV and oral formulations were prepared using the same method. On the day of dosing the solid compound was dissolved in DMSO prior to addition of a saline solution (0.9% w/v). The samples were then mixed using vortexing producing colourless solutions. The IV formulation was filtered through a 0.22 μm syringe filter prior to dosing and the oral formulation was dosed without filtration. […] Plasma concentration versus time data were analysed using non-compartmental methods (PKSolver Version 2.0). […]
Measured metric: AUC (ng·h/mL)
Unit ng·h/mL implied. Number only.

get_value(item= CC1(C)NC(=O)N(c2ccc(F)c(C(C)(F)F)c2)C1=O , readout=AUC) returns 20900

###

test: in vivo; set-up: species or system dog; conditions: beagle, dog, in vivo; female dogs, iv 1 mg/kg; read-out: mean peak plasma concentration (Cmax)
Measured metric: Cmax (ng/mL)
Unit ng/mL implied. Number only.

get_value(item= [2H]C([2H])([2H])C1(C([2H])([2H])[2H])NC(=O)N(c2ccc(F)c(C(C)(F)F)c2)C1=O , readout=Cmax) returns 12500
